Taken from PubChem BioAssay AID1508602.

# target.entity: G-protein coupled receptor 151 (Homo sapiens)
# experiment: activators of human GPR151, primary screen, cell-based, PathHunter beta-arrestin, luminescence (AID 1508602);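 further: 0% = median of compound wells and 100% = cells with positive control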
# assay.context: PathHunter beta-arrestin GPR151 cells, at 11.2 µM, stronger effect = higher value
The whole screen tested about 650,000 compounds, of which about 6,800 (1%) were called active. This is one part of a sample in which actives are shown more often than they occur.
# activation per record follows
property.measured: activation (%)

* CNC(=O)c1ccc(CN(c2ccc(C)c(C)c2)S(C)(=O)=O)cc1 | 0.29
* CCOC(=O)c1cccc(NC(=O)CCCOc2ccc(OC)cc2)c1 | 5.63
* CCN1CCN(C(=O)c2cc3c(=O)n(C)c4ccccc4c3s2)CC1 | 0.989
* O=C(Cc1ccccc1)NCc1nnc2n1CCN(Cc1ccc(F)cc1)CC2 | -0.584
* COC(=O)c1ccccc1NC(=O)c1ccc(CN(c2ccc(C)c(C)c2)S(C)(=O)=O)cc1 | -0.0331

====

# target.entity: G-protein coupled receptor 151 (Homo sapiens) (UniProt Q8TDV0)
# Sequence (Q8TDV0 whole entry, looked up): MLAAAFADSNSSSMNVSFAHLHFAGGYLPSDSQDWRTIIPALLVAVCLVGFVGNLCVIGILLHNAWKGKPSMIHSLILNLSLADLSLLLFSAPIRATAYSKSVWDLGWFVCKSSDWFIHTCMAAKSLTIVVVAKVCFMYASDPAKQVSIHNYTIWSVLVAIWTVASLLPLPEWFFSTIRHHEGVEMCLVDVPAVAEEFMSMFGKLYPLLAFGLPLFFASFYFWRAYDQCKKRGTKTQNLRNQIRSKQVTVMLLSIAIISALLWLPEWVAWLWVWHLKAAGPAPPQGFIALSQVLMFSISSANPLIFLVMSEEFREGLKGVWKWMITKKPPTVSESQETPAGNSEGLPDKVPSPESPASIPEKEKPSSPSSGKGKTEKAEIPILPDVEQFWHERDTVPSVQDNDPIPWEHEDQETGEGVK
# experiment: activators of human GPR151, primary screen, cell-based, PathHunter beta-arrestin, luminescence (AID 1508602);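 further: 0% = median of compound wells and 100% = cells with positive control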
# assay.context: PathHunter beta-arrestin GPR151 cells, at 11.2 µM, stronger effect = higher value
Hit rate of the full screen: of about 650,000 compounds, about 6,800 (1%) were called active. The sample as a whole holds a higher share of actives than the screen did.
# activation per record follows
property.measured: activation (%)

* Cc1ccc(N2C(=O)CC(N3CCN(Cc4ccc(Cl)cc4)CC3)C2=O)cc1Cl (stereo unspecified) | 5.11
* COC(=O)c1ccccc1NC(=O)C1=CC(c2cccc(OC)c2)=NS(=O)(=O)N1C | 2.65
* CC1Cc2ccccc2N1S(=O)(=O)c1nnc(NC(=O)c2ccc(F)cc2)s1 (stereo unspecified) | -0.611
* CCCOC(=O)C1=C(C)NC(=O)NC1c1ccc(Br)cc1 (stereo unspecified) | 9.45
* CC(=O)Nc1ccc(NC(=O)/C=C\C(=O)O)cc1C | 2.3
* Cc1ccc(N2C(=O)CC(N3CCC(Cc4ccccc4)CC3)C2=O)cc1Cl (stereo unspecified) | -0.328
* O=C(CCN(Cc1ccc(Cl)cc1)S(=O)(=O)c1ccc(Br)cc1)NO | 0.218
* CCCN1CCC(N2CCN(c3cccc(Cl)c3)CC2)CC1 | -0.685
* CCCOC(=O)C1=C(C)NC(=O)NC1c1ccccc1 (stereo unspecified) | -1.76
* CCCC(C)NS(=O)(=O)c1ccc(OCC(=O)OC)cc1 (stereo unspecified) | 0.348
* O=C(CSc1nc2ccccc2c(=O)n1CCCN1CCN(c2cccc(Cl)c2)CC1)N1CCCCCC1 | 0.298

====

# activation per record follows
# target.entity: G-protein coupled receptor 151 (Homo sapiens)
# experiment: activators of human GPR151, primary screen, cell-based, PathHunter beta-arrestin, luminescence (AID 1508602);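 further: 0% = median of compound wells and 100% = cells with positive control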
# assay.context: PathHunter beta-arrestin GPR151 cells, at 11.2 µM, stronger effect = higher value
About 6,800 (1%) of roughly 650,000 compounds were called active. Many of the other results were omitted from the sample, so actives are more common in it than they were.
property.measured: activation (%)

• Cc1ccc(NC(=O)CCNS(=O)(=O)c2ccc3c(c2)c(=O)n(C)c(=O)n3C)nc1 = -0.3
• COC(=O)c1cccc(-n2c3nc(=O)[nH]c(=O)c-3cc3ccccc32)c1 = -0.76
• CCCNC(=O)N1CCC2(CC1)OCc1ccccc1O2 = -0.163
• Cc1ccc2c(CC(=O)N3CCc4ccccc4C3)cc(=O)oc2c1 = -1.02
• O=C(N/N=C\c1ccccc1Cl)c1ccccn1 = -5.29
• Cc1ccc(C(=O)Nc2ccc(N(C)C)cc2)cc1C = -2.22
• Cc1ccc(NC(=O)c2cccc(N(C)C)c2)cc1NC(=O)c1ccc(O)cc1 = 8.84
• Cc1cc2c(c(=O)o1)C(c1cccc(OCc3c(F)cccc3Cl)c1)C(C#N)=C(N)O2 (stereo unspecified) = 1.06
• CCOc1ccc(-c2cc(C(=O)NCCCN3CCN(C)CC3)c3ccccc3n2)cc1 = 2.73
• Cn1c(SCCN2CCCCC2)nnc1C1CCN(C/C=C/c2ccco2)CC1 = 1.24
• Cc1cccc(CN2CCN3C(=O)[C@H](Cc4cnc[nH]4)NC(=O)[C@H]3C2)n1 = 0.592
